Data provenance is patent US20110118447A1.

target: binding partner of C5A (XPA23); experiment: Biacore
The reader will find reported fold difference in affinity vs original values listed item by item below.
READOUT_TYPE: fold difference in affinity vs original

>  <BINDER>
C5A (XPA23) VH G56T (antibody, V domains shown) VH: EVQLLESGGGLVQPGGSLRLSCAASGFTFSKYFMFWVRQAPGKGLEWVSVISPSGTMTRYADSVKGRFTISRDNSKNTLYLQMNSLRAEDTAVYYCARVGYGGNSDYWGQGTLVTVSS VL: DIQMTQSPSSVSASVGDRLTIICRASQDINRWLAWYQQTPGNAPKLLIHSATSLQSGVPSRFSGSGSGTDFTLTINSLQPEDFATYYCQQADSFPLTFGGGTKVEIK

>  <RESULT_VALUE>
1.11 fold

$$$$
>  <BINDER>
C5A (XPA23) VH Y107L (antibody, V domains shown) VH: EVQLLESGGGLVQPGGSLRLSCAASGFTFSKYFMFWVRQAPGKGLEWVSVISPSGGMTRYADSVKGRFTISRDNSKNTLYLQMNSLRAEDTAVYYCARVGYGGNSDLWGQGTLVTVSS VL: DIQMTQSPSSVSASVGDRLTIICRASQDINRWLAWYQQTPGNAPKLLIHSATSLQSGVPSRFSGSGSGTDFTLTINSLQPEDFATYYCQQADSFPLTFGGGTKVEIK

>  <RESULT_VALUE>
0.86 fold

$$$$
>  <BINDER>
C5A (XPA23) VH Y101A (antibody, V domains shown) VH: EVQLLESGGGLVQPGGSLRLSCAASGFTFSKYFMFWVRQAPGKGLEWVSVISPSGGMTRYADSVKGRFTISRDNSKNTLYLQMNSLRAEDTAVYYCARVGAGGNSDYWGQGTLVTVSS VL: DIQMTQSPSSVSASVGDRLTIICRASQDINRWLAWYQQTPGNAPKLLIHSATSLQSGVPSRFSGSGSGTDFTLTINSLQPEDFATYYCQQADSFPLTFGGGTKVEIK

>  <RESULT_VALUE>
0.04 fold

$$$$
